Taken from patent US20110207764A1.

- ASSAY DETAILS: Concentration of active ingredient dissolved in 60% (w/w) aqueous SBECD after filtration, determined by HPLC
- Type: physicochemical
- CONDITIONS USED: boiling water bath 1 hour, room temperature 24 hours, 0.2 micrometer filter
Doc: threshold 4 mg/g (exclusive). Items with concentration of active ingredient in filtered solution beneath it return Fulfilled; others return Not fulfilled.

Below are worked cases with known answers.
Item CC(=O)[C@@]1(O)CC[C@H]2[C@@H]3C=C(C)C4=CC(=O)CC[C@]4(C)[C@H]3CC[C@@]21C [megesterol] : concentration of active ingredient in filtered solution beneath 4 mg/g, strictly?
Not fulfilled

Item Cc1cc(C)c(C=C2C(=O)Nc3ccccc32)[nH]1 [semaxanib] : concentration of active ingredient in filtered solution beneath 4 mg/g, strictly?
Fulfilled

Item O=c1c2ccccc2oc2ccccc12 [xanthone, 9H-xanthen-9-one] : concentration of active ingredient in filtered solution beneath 4 mg/g, strictly?
Not fulfilled

Item COc1ccccc1OCCNCC(O)COc1cccc2[nH]c3ccccc3c12 (centres unmarked) [carvedilol] : concentration of active ingredient in filtered solution beneath 4 mg/g, strictly?
Not fulfilled

Next:
Item CCc1c2c(nc3ccc(O)cc13)-c1cc3c(c(=O)n1C2)COC(=O)[C@]3(O)CC [SN-38, 7-Ethyl-10-hydroxy-camptothecin] : concentration of active ingredient in filtered solution beneath 4 mg/g, strictly?
Fulfilled
